Test: molar heat capacity at constant pressure
Conditions: 308.15 K; 101.33 kPa; Crystal; Small sample (50 mg) DSC
Listed here are compounds together with their documented molar heat capacity at constant pressure.

{"COMPOUND": "CO[C@H]1O[C@H](CO)[C@@H](O)[C@H](O)[C@H]1O [methyl-α-D-glucopyranoside]", "molar heat capacity at constant pressure (J/K/mol)": 240.7}
{"COMPOUND": "O.OC[C@H]1O[C@@H](O[C@H]2[C@H](O)[C@@H](O)[C@@H](O)O[C@@H]2CO)[C@H](O)[C@@H](O)[C@H]1O [α-D-lactose hydrate]", "molar heat capacity at constant pressure (J/K/mol)": 446.4}
{"COMPOUND": "CC(=O)N[C@@H](C=O)[C@@H](O)[C@H](O)[C@H](O)CO", "molar heat capacity at constant pressure (J/K/mol)": 283.3}

---

Experiment: molar heat capacity at constant pressure
Conditions: 313.15 K; 101.33 kPa; Crystal; Small sample (50 mg) DSC
Param threshold (300 J/K/mol) applies to molar heat capacity at constant pressure; output YES when value >= threshold, NO when value < threshold.

{"COMPOUND": "OC[C@H]1O[C@@H]2O[C@H]3[C@H](O)[C@@H](O)[C@@H](O[C@H]4[C@H](O)[C@@H](O)[C@@H](O[C@H]5[C@H](O)[C@@H](O)[C@@H](O[C@H]6[C@H](O)[C@@H](O)[C@@H](O[C@H]7[C@H](O)[C@@H](O)[C@@H](O[C@H]1[C@H](O)[C@H]2O)O[C@@H]7CO)O[C@@H]6CO)O[C@@H]5CO)O[C@@H]4CO)O[C@@H]3CO", "CLASS": "YES"}
{"COMPOUND": "OC[C@H]1O[C@@H]2O[C@H]3[C@H](O)[C@@H](O)[C@@H](O[C@H]4[C@H](O)[C@@H](O)[C@@H](O[C@H]5[C@H](O)[C@@H](O)[C@@H](O[C@H]6[C@H](O)[C@@H](O)[C@@H](O[C@H]7[C@H](O)[C@@H](O)[C@@H](O[C@H]8[C@H](O)[C@@H](O)[C@@H](O[C@H]1[C@H](O)[C@H]2O)O[C@@H]8CO)O[C@@H]7CO)O[C@@H]6CO)O[C@@H]5CO)O[C@@H]4CO)O[C@@H]3CO", "CLASS": "YES"}
{"COMPOUND": "O=C[C@H](O)[C@H](O)[C@H](O)CO", "CLASS": "NO"}
{"COMPOUND": "O=C(CO)[C@@H](O)[C@H](O)[C@H](O)CO", "CLASS": "NO"}
{"COMPOUND": "O=C[C@H](O)[C@@H](O)[C@@H](O)[C@H](O)CO [(+)-galactose]", "CLASS": "NO"}
{"COMPOUND": "OC[C@H]1O[C@@](CO)(O[C@H]2O[C@H](CO)[C@@H](O)[C@H](O)[C@H]2O)[C@@H](O)[C@@H]1O", "CLASS": "YES"}
{"COMPOUND": "CO[C@H]1O[C@H](CO)[C@@H](O)[C@H](O)[C@H]1O [methyl-α-D-glucopyranoside]", "CLASS": "NO"}
{"COMPOUND": "CC(=O)N[C@@H](C=O)[C@@H](O)[C@H](O)[C@H](O)CO", "CLASS": "NO"}
